# Lookup of reported target cell lysis by TIL 1200 (% specific lysis) keyed by entry
- Test system: T2 target cells, gp100-reactive TIL 1200 lymphocytes
- Procedure details: Chromium-release assay, target cell sensitization for lysis by TIL 1200
- Type: cell-based, human
- Conditions: E:T 20:1, T2 target cells preincubated 90 min with 1 μM peptide, 5 hours
Could you give me the number in %? Just the number is fine.

> print(dat)
   sequence.chain  experimental.value
1       ATWGQYWQV                  75

Problem: Could you tell me which target cell lysis by TIL 1200 (% specific lysis) is on file for YLEPGPVTA [reference compound] ?
Solution: 3

Problem: // query target cell lysis by TIL 1200 (% specific lysis) value for entry `KTWAQYWQV`
Solution: 63

###

- Measurement target: HLA-A*0201 (Homo sapiens, UniProt P04439, D140Y/D185E/D98H/E176V/E277Q/G131W/G231S/I119V/I121R/I166T/I218V/L300P/L318F/N151K/N90K/P208A/P217A/Q86G/Q94H/R138H/R169H/T345S)
- Construct: Peptide-induced HLA-A*0201 upregulation on T2 cells was performed as described previously; endogenous in cells; host or cells: T2 cells (processing-defective, HLA-A*0201+)
- Procedure details: Competition based HLA-A*0201 peptide-binding assay on JY cells
- Conditions: competition with Fluorescein labeled reference peptide at 4° C., mild acid treated HLA-A*0201+ B-LCL; read-out: Affinity IC50
No end group written: not given here.
Endpoint name: IC50
State the value, then name its unit.

Problem: Recorded IC50 of `KIWGQYWQV` , please.
Solution: 0.6 µM

Problem: Could you share which IC50 value was measured for `KLWGQYWQV` ?
Solution: 0.4 µM

Problem: So what does the record say about IC50 for `KTWGQYWAV` ?
Solution: 0.5 µM

Problem: What does the record list as IC50 for `KVWGQYWQV` ?
Solution: 0.8 µM

###

- System: T2 target cells, gp100-reactive TIL 1200 lymphocytes
- Procedure details: Chromium-release assay, target cell sensitization for lysis by TIL 1200
- Assay type: cell-based, human
- Conditions: E:T 20:1, T2 target cells preincubated 90 min with 1 μM peptide, 5 hours
- Procedure: Chromium release assays were performed as described previously (Bakker et al., 1994, J. Exp. Med. 179:1005). […] After 5 h of incubation, part of the supernatant was harvested and its radioactive content was measured. The mean percentage specific lysis of triplicate wells was calculated using the formula: % specific lysis=((experimental release−spontaneous release)÷(maximal release−spontaneous release))×100.
As shown below, each of these sequences has a reported target cell lysis by TIL 1200 (% specific lysis) value.
Numeric answer only, unit % assumed.

Here's what some known entries look like.
> print(dat)
   sequence.chain  unit.name  experimental.value
1       KTWGQYWQA          %                  76
2       KMWGQYWQV          %                  57
3       KTAGQYWQV          %                  58
4       KTWGQAWQV          %                   7
5       KTWGQYAQV          %                  −2
6       KAWGQYWQV          %                  64

// switching to the query sequence
Problem: Record request: target cell lysis by TIL 1200 (% specific lysis) value, item `KTWGAYWQV`
Solution: 9
